Recorded RAM network inhibition by entry
Assay: RAM signaling pathway blockade in yeast – S. cerevisiae, Pdr1DBD-CYC8 efflux-inhibited sensitized strain, primary screen (AID 1298);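 further: 0% = DMSO untreated cells without growth and 100% = 10 µM 1-NA-PP1 full growth; higher means more yeast growth rescued from 5-FOA killing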
Conditions: S. cerevisiae cbk1-as DSE1-URA3 strain, 5-FOA growth OD615, 2 d; at 50 µM; stronger effect = higher value
Field: numeric (%). Do not append units.

- COMPOUND: "COC(=O)c1ccc(OCC(O)CN2CCC(C)CC2)cc1 (configuration not stated)"
  RAM network inhibition / %: 4.68

Requested read-out: RAM network inhibition. Entry: `CCN(CCC(=O)Nc1cc(OC)cc(OC)c1)Cc1ccccc1`
3.12

Cool, now `c1ccc(C(Cc2nc(-c3ccccn3)no2)c2ccccc2)cc1`
6.08

For `Cn1c(=O)c2nnn(/N=C(\c3ccccc3)C3CC3)c2n(C)c1=O` then?
2.84

###

Test: S. cerevisiae growth inhibition in restrictive medium, OD615, pilot screen, restrictive growth control, yeast lifespan reduction project (AID 706);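 further: modified DeaD lifespan yeast strain shifted to restrictive glucose medium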
Settings: OD615, 48 h, at 10 µM, stronger effect = higher value
Measured growth inhibition of individual entries
Express your answer in %, writing the number without its unit.

- MOLECULE: "CC12CN3CC(C)(CN(C1)C3c1ccc(Cl)cc1Cl)C2=O (stereo unspecified)"
  RESULT UNIT: "%"
  growth inhibition: -1.12
- MOLECULE: "COc1cc2c(cc1OC)-c1nnc(C)n1C1(CCCC1)C2"
  RESULT UNIT: "%"
  growth inhibition: -16
- MOLECULE: "Cc1cc(C)c(NC(=O)CSc2nc3c(c(=O)n2C)SC(C)C3)c(C)c1 (stereo unspecified)"
  RESULT UNIT: "%"
  growth inhibition: -17.5

Now consider the entry below.
I would be grateful if you could share the reported growth inhibition for `CCN1CCN(c2ncnc3c2cnn3-c2ccc(C)cc2C)CC1` .
-11

###

Assay: S. cerevisiae growth inhibition in restrictive medium, OD615, pilot screen, restrictive growth control, yeast lifespan reduction project (AID 706);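 further: modified DeaD lifespan yeast strain shifted to restrictive glucose medium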
Details: OD615, 48 h, at 10 µM, stronger effect = higher value
Calls of active or inactive are those of the source.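 Rule for the calls: active = growth inhibition above a set limit, 3 SD over mean compound inhibition, in both replicates (cut at about 43% in these data); inconclusive = above the limit in only one replicate; inactive = at or below the limit in both replicates.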
REPORTED METRIC: growth inhibition

Worked examples, 8 molecules total:
- MOLECULE: "COc1ccc(-c2[nH]c(-c3ccc(F)cc3)nc2SCC(=O)NCc2ccco2)cc1OC"
  growth inhibition: "12.4% (inactive)"
- MOLECULE: "CCOC(=O)c1c(C)n(C)c2c(C)cc(O)c(OC(C)=O)c12"
  growth inhibition: "-6.75% (inactive)"
- MOLECULE: "COc1ccc(NS(=O)(=O)c2ccc(NC(C)=O)cc2)cc1OC"
  growth inhibition: "-9.44% (inactive)"
- MOLECULE: "Cn1cc(S(=O)(=O)Nc2ccc(F)cc2F)c(=O)n(C)c1=O"
  growth inhibition: "0.815% (inactive)"
- MOLECULE: "Cc1ccc(N(C)C(=O)N2CCN(S(=O)(=O)c3ccc(C)cc3)CC2)cc1"
  growth inhibition: "-7.74% (inactive)"
- MOLECULE: "Cc1ccnc(NC(=O)C2CCC(CNc3c(N4CCCC4)c(=O)c3=O)CC2)c1 (centres undefined)"
  growth inhibition: "4.16% (inactive)"
- MOLECULE: "COc1cccc(C2CC(=O)Nc3c2c(=O)n(C)c(=O)n3C)c1OC (centres undefined)"
  growth inhibition: "-1.43% (inactive)"
- MOLECULE: "COc1ccc(S(=O)(=O)N(C)C2CCN(C)CC2)cc1"
  growth inhibition: "-10.2% (inactive)"

Param item = COc1cccc(C2=NOC(C(=O)Nc3cc(C)nn3-c3ccccc3)C2)c1OC (centres undefined) ; retrieve measured growth inhibition.
12% (inactive)

Same for CCOc1ccc(N(CC(=O)NC(C)CC)S(=O)(=O)c2c(C)noc2C)cc1 (centres undefined)
-11.1% (inactive)

Let us now turn to `CCCCc1cc(=O)oc2cc(OCC(=O)N(CC)CC)c(Cl)cc12`
2.79% (inactive)

###

Experiment: reduced viability of SK-BR-3 breast cancer cells – cell-based, 24 h, human, pilot screen (AID 572);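 further: compound exposure lasted between 18 and 24 h rather than exactly 24 h; 100% = carrier-treated control wells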
Details: SK-BR-3 viability, CellTiter-Glo luminescence, at 10 µM, stronger effect = lower value
Flag rule - viability less than 90% flags condition met; the remaining entries get condition not met.

Example results:
- MOLECULE: "Clc1ccc(Nc2ncnc3c2cnn3-c2ccccc2)cc1"
  CLASS NAME: "condition not met"
- MOLECULE: "COC1CCCCC1Nc1cccc(SC)c1 (stereo not given)"
  CLASS NAME: "condition not met"
- MOLECULE: "CCNc1ccc(C(=O)OCC)cc1NC(=O)c1cc(S(=O)(=O)N2CCOCC2)ccc1C"
  CLASS NAME: "condition not met"
- MOLECULE: "CCN1CCCC1CNC(=O)c1cc2c(=O)n(C)c3ccccc3c2n1C (stereo not given)"
  CLASS NAME: "condition met"
- MOLECULE: "O=C(CN1CCN(Cc2ccccc2F)C1=O)NCc1cccnc1"
  CLASS NAME: "condition not met"

Dear colleague, could you confirm whether viability of CCCC(=O)N1CC(=O)Nc2ccc(C)cc2C1c1ccc(F)cc1 (stereo not given) falls below 90%? Thanks.
condition met

What do you get for `CCCCn1c(CNC(=O)CCC)nc2ccccc21` ?
condition not met

Also need `O=C(c1ccc(CSCc2ccccc2F)o1)N1CCN(c2ccc(N3CCOCC3)nn2)CC1` , thanks.
condition met

Again, but for `CCN(CC)C(=O)COc1ccc2oc(C)c(C(=O)OC(C)C)c2c1`
condition met

What would you report for O=C(Cn1nc(Cc2cccnc2)c2ccccc2c1=O)NCC1CCCO1 (stereo not given) ?
condition not met

###

Recorded viability values for a group of compounds are listed next.
Test: viability of HCT116 without oncogenic beta-catenin – human colon tumor cells, pilot screen (AID 823);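 further: 0% = wells killed by 20 µM Hyamine and 100% = untreated DMSO cell wells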
Details: HCT116 beta-catenin knockout viability, CellTiter-Glo, 60 h; at 10 µM; stronger effect = lower value
Inconclusive results are not listed.
Reply with just the number (in %).

- COMPOUND: "COc1ccc(C2CC(c3cccc(Cl)c3)n3nc(N)nc3N2)cc1 (stereo not given)"
  OBS VALUE: 99.8

Need viability of `CC1(C)Cc2c(C#N)c(N)sc(=S)c2CO1` , thanks.
101

Also Cc1ccc(N(C(=O)c2ccncc2)C2C=CS(=O)(=O)C2)cc1 (stereo not given) ?
93.8

Also, `Cc1nnc(Sc2nc3c(c(=O)[nH]c(=O)n3C)n2Cc2ccccc2Cl)s1` please.
96.8

Can you check `COc1ccc(N(CC(=O)N2CCc3ccccc3C2)S(=O)(=O)c2c(C)[nH]c(=O)[nH]c2=O)cc1` next?
110

###

# viability per record follows
Experiment: Her2 expression decrease, cell viability multiplex – SKBR3 breast tumor cells, AlphaScreen, ATP viability, primary screen (AID 461);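 further: percent of carrier control wells set as 100% viability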
Settings: SKBR3 Her2 protein level, 18-24 h, measured here: SKBR3 viability, ATP luminescence, at 10 µM
Answer as a quantity: numeral, then unit.

Give the measured viability of CCOC(=O)C(CC)Sc1ncnc2nc[nH]c12 (stereo not drawn) .
104%

Consider next the compound `O=C(OCn1nnc2ccccc2c1=O)c1cc2ccccc2o1` in the same way.
88%

###

Assay: MRP1 drug-resistance reversers in H69AR cells – cell-based, doxorubicin co-treatment, pilot screen (AID 601)
Conditions: H69AR cells, CellTiter-Glo, 72 h; compound alone cytotoxicity; at 10 µM
REPORTED METRIC: viability (%)
Lab book: enter the figure in %, no units written.

Completed entries (count: 5):
- COMPOUND: "COc1ccc(N2CCN(CCCNS(=O)(=O)c3c(C)noc3/C=C/N(C)C)CC2)cc1"
  viability / %: 92.9
- COMPOUND: "COc1ccc(CNc2oc(-c3ccccc3)nc2C#N)cc1"
  viability / %: 103
- COMPOUND: "O=S(=O)(NCC(O)COCc1ccco1)c1cccs1 (stereo not drawn)"
  viability / %: 83.7
- COMPOUND: "O=C(C1CCC(CNc2c(N3CCCCC3)c(=O)c2=O)CC1)N1CCc2ccccc2C1 (stereo not drawn)"
  viability / %: 91.8
- COMPOUND: "Cn1c(=O)c(=O)n(C)c2cc(S(=O)(=O)CCC(=O)N3CCOCC3)ccc21"
  viability / %: 95

Given the compound `COc1ccccc1C(=O)NCCc1nc2ccccc2n1C` , what is its reported viability?
101

And what about the compound Nc1nc2n(n1)C(c1c(F)cccc1Cl)CC(c1ccc(F)cc1)N2 (stereo not drawn) ?
86.2

###

Entries and their inhibition
Experiment: growth suppression of yeast trafficking mutant, preliminary HTS, modulators of trafficking downstream of Golgi apparatus project, 1536-format plate, OD 615 nm (AID 637)
Settings: yeast transport mutant growth, absorbance 615 nm, 18 h; stronger effect = higher value
Express the result in % but write the number alone.

For orientation, consider the following solved cases.
- COMPOUND: "O=C(c1cccs1)N1CCc2ccccc21"
  RESULT UNIT: "%"
  OBS VALUE: 0.97
- COMPOUND: "CC(C)CC1NC2(C(=O)N(C)c3ccccc32)C2C(=O)N(C(C)C)C(=O)C12 (stereo not drawn)"
  RESULT UNIT: "%"
  OBS VALUE: -0.33
- COMPOUND: "Cn1c(=O)oc2cc(S(=O)(=O)N3CCCC(C(=O)NCC4COc5ccccc5O4)C3)ccc21 (stereo not drawn)"
  RESULT UNIT: "%"
  OBS VALUE: -2.79
- COMPOUND: "COc1cc(/C=N/n2cnnc2)ccc1OCC(=O)N1CCOCC1"
  RESULT UNIT: "%"
  OBS VALUE: -1.17
- COMPOUND: "Cc1nnc(SCCn2c(N3CCC(Cc4ccccc4)CC3)nc3c2c(=O)[nH]c(=O)n3C)s1"
  RESULT UNIT: "%"
  OBS VALUE: -5.56

Can you share its inhibition? I mean this compound: COc1ccc(C2CC(c3ccc(C)cc3)Nc3ncnn32)cc1 (stereo not drawn)
3.28

Continue with CC(C)C(CO)NC(=O)CC(=O)NC(CO)C(C)C (stereo not drawn)
-0.91
